Biological target: human tear lipocalin (TL) (Homo sapiens, UniProt P31025, G121W/W35Y)
Sequence (P31025 19-176 W35Y/G121W): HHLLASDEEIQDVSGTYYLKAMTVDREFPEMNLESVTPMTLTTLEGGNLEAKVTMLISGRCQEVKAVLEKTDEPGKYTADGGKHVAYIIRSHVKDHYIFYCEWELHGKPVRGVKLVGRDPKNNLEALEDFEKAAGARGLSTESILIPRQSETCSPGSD
Assay: Trp fluorescence titration, one-site fit
quantity.measured: pKd
Value format note: pKd is -log10 of concentration (mol/L); just state the number.

Record summary for `CCCCCCCCCCCCCCCC(=O)O` : reported pKd = 6.52

* * *

Target: human tear lipocalin (TL) (Homo sapiens, UniProt P31025, L67W/W35Y)
Sequence (P31025 19-176 W35Y/L67W): as the sequence (P31025 19-176 W35Y/G121W) above, with L49W, W103G counted along it
Test: Trp fluorescence titration, one-site fit
quantity.measured: Kd
Your reply should be a number followed by the unit it is expressed in.

Record summary for CCCCCCCCCCCCCCCC(=O)O [PA] : reported Kd = 2300 nM
